Data provenance is patent US6706266.

So I've got a bunch of binders here, and I need their sPAP HepG2 B6 assay: Mean % of wild type EC50 values.
target_system: T1, gp130 on HepG2 B6 cells (UniProt P40189 23-918, limits assumed)
T1 sequence (looked up): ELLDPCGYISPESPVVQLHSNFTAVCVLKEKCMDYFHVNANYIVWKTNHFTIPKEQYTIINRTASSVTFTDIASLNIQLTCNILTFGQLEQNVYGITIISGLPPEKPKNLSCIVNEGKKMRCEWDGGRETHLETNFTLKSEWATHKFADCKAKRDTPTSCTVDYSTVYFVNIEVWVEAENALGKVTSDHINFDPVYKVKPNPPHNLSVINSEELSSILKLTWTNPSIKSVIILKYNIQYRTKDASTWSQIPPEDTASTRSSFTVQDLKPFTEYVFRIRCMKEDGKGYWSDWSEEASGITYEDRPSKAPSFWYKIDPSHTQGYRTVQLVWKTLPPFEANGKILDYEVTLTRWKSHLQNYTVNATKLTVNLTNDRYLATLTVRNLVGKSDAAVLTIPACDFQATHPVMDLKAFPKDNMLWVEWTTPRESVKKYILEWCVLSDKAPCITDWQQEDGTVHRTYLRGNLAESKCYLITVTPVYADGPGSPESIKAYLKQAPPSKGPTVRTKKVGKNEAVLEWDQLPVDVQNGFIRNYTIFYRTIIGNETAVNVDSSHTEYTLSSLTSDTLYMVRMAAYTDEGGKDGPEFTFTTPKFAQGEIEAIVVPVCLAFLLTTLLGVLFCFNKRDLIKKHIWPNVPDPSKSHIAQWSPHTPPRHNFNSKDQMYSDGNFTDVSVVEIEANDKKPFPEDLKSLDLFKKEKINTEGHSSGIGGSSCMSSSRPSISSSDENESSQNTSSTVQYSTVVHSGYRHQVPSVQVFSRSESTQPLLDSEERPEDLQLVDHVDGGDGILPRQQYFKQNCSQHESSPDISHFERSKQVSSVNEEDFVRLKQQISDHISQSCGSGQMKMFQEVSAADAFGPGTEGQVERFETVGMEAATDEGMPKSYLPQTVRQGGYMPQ
method_description: cell-based or functional assay
Numbers only, in %.

Your task in this section: give sPAP HepG2 B6 assay: Mean % of wild type EC50 for each listed record.
1. OSM-GST mutant S7A (ligand, not shown: a dimerising Fc or GST; large carriers; small tags and cut ends, Alanine mutant of m4; also called (1)S7A; 1 S7A) AAIGSCAKEYRVLLGQLQKQTDLMQDTSRLLDPYIRIQGLDVPKLREHCRERPGAFPSEETLRGLGRRGFLQTLNATLGCVLHRLADLEQRLPKAQDLERSGLNIEDLEKLQMARPNILGLRNNIYCMAQLLDNSDTAEPTKAGRGASQPPTPTPASDAFQRKLEGCRFLHGYHRFMHSVGRVFSKWGESPNRSRR
2. OSM-GST mutant L119A (ligand, not shown: a dimerising Fc or GST; large carriers; small tags and cut ends, Alanine mutant of m4; also called (19)L119A; 19 L119A) AAIGSCSKEYRVLLGQLQKQTDLMQDTSRLLDPYIRIQGLDVPKLREHCRERPGAFPSEETLRGLGRRGFLQTLNATLGCVLHRLADLEQRLPKAQDLERSGLNIEDLEKLQMARPNIAGLRNNIYCMAQLLDNSDTAEPTKAGRGASQPPTPTPASDAFQRKLEGCRFLHGYHRFMHSVGRVFSKWGESPNRSRR
3. OSM-GST mutant T21A (ligand, not shown: a dimerising Fc or GST; large carriers; small tags and cut ends, Alanine mutant of m4; also called (14)T21A; 14 T21A) AAIGSCSKEYRVLLGQLQKQADLMQDTSRLLDPYIRIQGLDVPKLREHCRERPGAFPSEETLRGLGRRGFLQTLNATLGCVLHRLADLEQRLPKAQDLERSGLNIEDLEKLQMARPNILGLRNNIYCMAQLLDNSDTAEPTKAGRGASQPPTPTPASDAFQRKLEGCRFLHGYHRFMHSVGRVFSKWGESPNRSRR
4. OSM-GST mutant M113A (ligand, not shown: a dimerising Fc or GST; large carriers; small tags and cut ends, Alanine mutant of m4; also called (16)M113; 16 M113A) AAIGSCSKEYRVLLGQLQKQTDLMQDTSRLLDPYIRIQGLDVPKLREHCRERPGAFPSEETLRGLGRRGFLQTLNATLGCVLHRLADLEQRLPKAQDLERSGLNIEDLEKLQAARPNILGLRNNIYCMAQLLDNSDTAEPTKAGRGASQPPTPTPASDAFQRKLEGCRFLHGYHRFMHSVGRVFSKWGESPNRSRR
5. OSM-GST mutant Q130A (ligand, not shown: a dimerising Fc or GST; large carriers; small tags and cut ends, Alanine mutant of m4; also called (25)Y130A; 25 Q130A) AAIGSCSKEYRVLLGQLQKQTDLMQDTSRLLDPYIRIQGLDVPKLREHCRERPGAFPSEETLRGLGRRGFLQTLNATLGCVLHRLADLEQRLPKAQDLERSGLNIEDLEKLQMARPNILGLRNNIYCMAALLDNSDTAEPTKAGRGASQPPTPTPASDAFQRKLEGCRFLHGYHRFMHSVGRVFSKWGESPNRSRR

1. 59.5
2. 93.5
3. 52
4. 92
5. 39

Your task in this section: give sPAP HepG2 B6 assay: Mean % of wild type EC50 for each listed record.
1. OSM-GST mutant Y10A (ligand, not shown: a dimerising Fc or GST; large carriers; small tags and cut ends, Alanine mutant of m4; also called (4)Y10A; 4 Y10A) AAIGSCSKEARVLLGQLQKQTDLMQDTSRLLDPYIRIQGLDVPKLREHCRERPGAFPSEETLRGLGRRGFLQTLNATLGCVLHRLADLEQRLPKAQDLERSGLNIEDLEKLQMARPNILGLRNNIYCMAQLLDNSDTAEPTKAGRGASQPPTPTPASDAFQRKLEGCRFLHGYHRFMHSVGRVFSKWGESPNRSRR
2. OSM-GST mutant N124A (ligand, not shown: a dimerising Fc or GST; large carriers; small tags and cut ends, Alanine mutant of m4; also called (23)N124A; 23 N124A) AAIGSCSKEYRVLLGQLQKQTDLMQDTSRLLDPYIRIQGLDVPKLREHCRERPGAFPSEETLRGLGRRGFLQTLNATLGCVLHRLADLEQRLPKAQDLERSGLNIEDLEKLQMARPNILGLRNAIYCMAQLLDNSDTAEPTKAGRGASQPPTPTPASDAFQRKLEGCRFLHGYHRFMHSVGRVFSKWGESPNRSRR
3. OSM-GST mutant L17A (ligand, Alanine mutant of m4; also called (10)L17A; 10 L17A; not shown: Its linker is left out) AAIGSCSKEYRVLLGQAQKQTDLMQDTSRLLDPYIRIQGLDVPKLREHCRERPGAFPSEETLRGLGRRGFLQTLNATLGCVLHRLADLEQRLPKAQDLERSGLNIEDLEKLQMARPNILGLRNNIYCMAQLLDNSDTAEPTKAGRGASQPPTPTPASDAFQRKLEGCRFLHGYHRFMHSVGRVFSKWGESPNRSRR
4. OSM-GST mutant Q25A (ligand, not shown: a dimerising Fc or GST; large carriers; small tags and cut ends, Alanine mutant of m4; also called (26)Q25A; 26 Q25A) AAIGSCSKEYRVLLGQLQKQTDLMADTSRLLDPYIRIQGLDVPKLREHCRERPGAFPSEETLRGLGRRGFLQTLNATLGCVLHRLADLEQRLPKAQDLERSGLNIEDLEKLQMARPNILGLRNNIYCMAQLLDNSDTAEPTKAGRGASQPPTPTPASDAFQRKLEGCRFLHGYHRFMHSVGRVFSKWGESPNRSRR
5. OSM-GST mutant N117A (ligand, not shown: a dimerising Fc or GST; large carriers; small tags and cut ends, Alanine mutant of m4; also called (18)N117A; 18 N117A) AAIGSCSKEYRVLLGQLQKQTDLMQDTSRLLDPYIRIQGLDVPKLREHCRERPGAFPSEETLRGLGRRGFLQTLNATLGCVLHRLADLEQRLPKAQDLERSGLNIEDLEKLQMARPAILGLRNNIYCMAQLLDNSDTAEPTKAGRGASQPPTPTPASDAFQRKLEGCRFLHGYHRFMHSVGRVFSKWGESPNRSRR
6. OSM-GST mutant K8A (ligand, not shown: a dimerising Fc or GST; large carriers; small tags and cut ends, Alanine mutant of m4; also called (2)K8A; 2 K8A) AAIGSCSAEYRVLLGQLQKQTDLMQDTSRLLDPYIRIQGLDVPKLREHCRERPGAFPSEETLRGLGRRGFLQTLNATLGCVLHRLADLEQRLPKAQDLERSGLNIEDLEKLQMARPNILGLRNNIYCMAQLLDNSDTAEPTKAGRGASQPPTPTPASDAFQRKLEGCRFLHGYHRFMHSVGRVFSKWGESPNRSRR

195
119
238
48
186
52
